experiment: chemical genetic growth profiling, strain panel (AID 1159580);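 further: tested at 20 µM; growth read once vehicle control cultures reached saturation at 30 °C; 1 = growth at the plate median or of vehicle wells; lower values mean less growth of the strain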; details: S. cerevisiae deletion strains, growth OD, locus YDR502C, strain sam2, hits give low values
The whole screen tested about 5,500 compounds, of which about 2,000 (36%) were called active. Not shown: some 18% with an inconclusive outcome. The list shows a part of the results.
normalized growth for assorted molecules
Note: the reply should be a number with no unit written.

Example cases with answers are listed next.
Request: Query: normalized growth; subject: Cc1onc(-c2c(Cl)cccc2Cl)c1C(=O)N[C@@H]1C(=O)N2[C@@H]1SC(C)(C)[C@@H]2C(=O)O
Response: 0.996

Request: Query: normalized growth; subject: Cc1onc(-c2ccccc2)c1C(=O)NC1C(=O)N2[C@@H]1SC(C)(C)[C@@H]2C(=O)O (stereo partly drawn)
Response: 1.01

Request: Query: normalized growth; subject: CC(=O)O[C@H]1CC[C@]2(C)C3CC(=O)[C@]4(C)C(C(C)=O)=CCC4C3CC[C@H]2C1 (stereo partly drawn)
Response: 0.978

Others:
Request: Query: normalized growth; subject: CC(=O)OC1CCC2(C)C3CC(=O)C4(C)C(CC5OC6(CCC(C)CO6)[C@@H](C)C54)C3CC[C@H]2C1 (stereo partly drawn)
Response: 0.971

Request: Query: normalized growth; subject: Cc1onc(-c2ccccc2Cl)c1C(=O)N[C@@H]1C(=O)N2[C@@H]1SC(C)(C)[C@@H]2C(=O)O
Response: 1.02

Request: Query: normalized growth; subject: CC1(C)S[C@@H]2[C@H](NC(=O)Cc3ccccc3)C(=O)N2[C@H]1C(=O)O
Response: 1.02

Request: Query: normalized growth; subject: COc1c2occc2c(OC)c2c(=O)cc(C)oc12
Response: 1.01

Request: Query: normalized growth; subject: C=C(C)[C@@H]1CC[C@]2(CO)CC[C@]3(C)[C@H](CCC4[C@@]5(C)CC[C@H](O)C(C)(C)C5CC[C@]43C)C12 (stereo partly drawn)
Response: 0.997

###

normalized growth for assorted compounds
experiment: chemical genetic growth profiling, strain panel (AID 1159580);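 further: tested at 20 µM; growth read once vehicle control cultures reached saturation at 30 °C; 1 = growth at the plate median or of vehicle wells; lower values mean less growth of the strain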; conditions: S. cerevisiae deletion strains, growth OD, locus YOR106W, strain vam3, hits give low values
The campaign covered roughly 5,500 compounds. About 2,000 (36%) were called active. Inconclusive results (about 18%) are left out. The list shows a part of the results. Where a SMILES comes first, the peptide text is derived from it. Bridges are numbered along the chain shown (N, C = ends). [ ]: non-standard residue; d: D form. The star is where a group is joined. Octanoyl(6-Me) = CCC(C)CCCCC(=O)*; Orn = NCCC[CH](N)C(=O)O; Dab = NCC[CH](N)C(=O)O
Note: the reply should be a number with no unit written.

Example cases with answers are listed next.
Request: Query: normalized growth; subject: OC(c1cc(C(F)(F)F)nc2c(C(F)(F)F)cccc12)C1CCCCN1 (configuration not stated)
Response: 1.02

Request: Query: normalized growth; subject: CC[C@H]1OC(=O)[C@H](C)[C@@H](O[C@H]2C[C@@](C)(OC)[C@@H](O)[C@H](C)O2)[C@H](C)[C@@H](O[C@@H]2O[C@H](C)C[C@H](N(C)C)[C@H]2O)[C@](C)(O)C[C@@H](C)[C@@H]2N[C@@H](COCCOC)O[C@H]([C@H]2C)[C@]1(C)O
Response: 0.999

Request: Query: normalized growth; subject: CCCc1nc2c(C)cc(-c3nc4ccccc4n3C)cc2n1Cc1ccc(-c2ccccc2C(=O)O)cc1
Response: 1.03

Request: Query: normalized growth; subject: CNS(=O)(=O)Cc1ccc2[nH]cc(CCN(C)C)c2c1
Response: 1.05

Request: Query: normalized growth; subject: CN(C)CCc1c[nH]c2ccc(CS(=O)(=O)N3CCCC3)cc12
Response: 1.04

Others:
Request: Query: normalized growth; subject: CC(C)CC1NC(=O)C(CCCN)NC(=O)C(C(C)C)NC(=O)C2CCCN2C(=O)C(Cc2ccccc2)NC(=O)C(CC(C)C)NC(=O)C(CCCN)NC(=O)C(C(C)C)NC(=O)C2CCCN2C(=O)C(Cc2ccccc2)NC1=O (configuration not stated) (cyclo(FPV[Orn]LFPV[Orn]L); configuration not given here)
Response: 1.01

Request: Query: normalized growth; subject: CCC(C)CCCCC(=O)NC(CCN)C(=O)NC(C(=O)NC(CCN)C(=O)NC1CCNC(=O)C(C(C)O)NC(=O)C(CCN)NC(=O)C(CCN)NC(=O)C(CC(C)C)NC(=O)C(Cc2ccccc2)NC(=O)C(CCN)NC1=O)C(C)O (configuration not stated) ({Octanoyl(6-Me)}-[Dab]T[Dab][Dab][Dab]FL[Dab][Dab]T; lactam 4-C; configuration not given here)
Response: 0.987
